- tgt: human plasma kallikrein (Homo sapiens, UniProt P03952)
- Sequence (P03952 391-638 limits assumed): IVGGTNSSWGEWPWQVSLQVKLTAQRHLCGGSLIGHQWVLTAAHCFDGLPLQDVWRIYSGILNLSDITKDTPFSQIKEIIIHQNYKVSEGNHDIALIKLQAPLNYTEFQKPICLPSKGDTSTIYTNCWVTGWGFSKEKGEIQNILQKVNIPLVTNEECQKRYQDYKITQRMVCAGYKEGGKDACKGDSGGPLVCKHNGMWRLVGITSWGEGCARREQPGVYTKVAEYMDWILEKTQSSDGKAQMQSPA
- Sequence (P03952 20-390 partner limits assumed): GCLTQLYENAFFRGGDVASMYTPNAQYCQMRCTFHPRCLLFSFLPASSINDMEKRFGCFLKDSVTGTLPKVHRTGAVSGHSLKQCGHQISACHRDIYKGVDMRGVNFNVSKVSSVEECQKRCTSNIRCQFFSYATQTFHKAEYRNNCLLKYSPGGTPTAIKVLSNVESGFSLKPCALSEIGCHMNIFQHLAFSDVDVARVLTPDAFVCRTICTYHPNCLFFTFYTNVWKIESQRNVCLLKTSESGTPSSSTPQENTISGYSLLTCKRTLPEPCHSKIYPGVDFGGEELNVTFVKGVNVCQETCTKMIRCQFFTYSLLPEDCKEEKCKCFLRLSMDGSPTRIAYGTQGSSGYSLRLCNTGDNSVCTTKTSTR
- assayRemarks: Kallikrein inhibition assay (FLINT) utilizing a quenched AMC peptide substrate Z-Gly-Pro-Arg-AMC
- Format: biochemical
- conditionsUsed: kinetic (KIN) reads; values in nM; read-out: Kallikrein KIN Inh IC50
quantityKind: IC50 (nM)

# compound, quantityKind, unitTag, observedMeasurement
records = [
    ("C[C@@H]1C[C@@H](c2ncc(-c3cnc(N)c(F)c3)[nH]2)n2c1cc(-c1c(-n3cnnn3)ccc(Cl)c1F)cc2=O (relative stereo) [Example 62]", "IC50", "nM", 18.1),
]

[1] COC(=O)Nc1ccc(-c2cnc([C@@H]3C[C@H](C)c4nc(-c5c(-n6cnnn6)ccc(Cl)c5F)cc(=O)n43)[nH]2)cc1 (stereo in doubt) [Example 125]
[2] COC(=O)Nc1ccc(-c2cnc([C@H]3C[C@@H](C)c4nc(-c5c(-n6cnnn6)ccc(Cl)c5F)cc(=O)n43)[nH]2)cc1 (stereo in doubt) [Example 127]
Req: Could you point out whether the larger IC50 belongs to 1 or to 2 ? Refer to your chosen item by its label in the answer.
Resp: 2

[I] C[C@@H]1C[C@H](c2ncc(-c3ccnc(F)c3)[nH]2)n2c1cc(-c1c(-n3cnnn3)ccc(Cl)c1F)cc2=O (stereo in doubt) [Example 43]
[II] Nc1ccc(-c2[nH]c(C3CC4(CC4)c4nc(-c5c(-n6cnnn6)ccc(Cl)c5F)cc(=O)n43)nc2F)c(F)n1 (stereo in doubt) [Example 76]
[III] C[C@H]1C[C@@H](c2ncc(-c3cnc(F)c(N)c3)[nH]2)n2c1cc(-c1c(-n3cnnn3)ccc(Cl)c1F)cc2=O [Example 21]
[IV] COC(=O)Nc1ccc(-c2cnc([C@@H]3C[C@@H](OC)c4cc(-c5c(-n6cnnn6)ccc(Cl)c5F)cc(=O)n43)[nH]2)cc1 [Example 152]
Req: Rank ascending by IC50. # answer = labels listed in requested order
Resp: IV, II, I, III

[a] C[C@H]1C[C@@H](c2ncc(-c3ccnc(C#N)c3)[nH]2)n2c1cc(-c1c(-n3cnnn3)ccc(Cl)c1F)cc2=O (relative stereo) [Example 32]
[b] C[C@H]1C[C@@H](c2ncc(-c3ccc(=O)[nH]c3)[nH]2)n2c1cc(-c1c(-n3cnnn3)ccc(Cl)c1F)cc2=O [Example 16]
[c] C[C@H]1C[C@@H](c2ncc(-c3ccc4c(c3)CC(=O)N4)[nH]2)n2c1nc(-c1c(-n3cnnn3)ccc(Cl)c1F)cc2=O (stereo in doubt) [Example 113]
[d] Cc1nc(N)ccc1-c1cnc([C@@H]2C[C@H](C)c3cc(-c4c(-n5cnnn5)ccc(Cl)c4F)cc(=O)n32)[nH]1 (relative stereo) [Example 51]
Req: Highest IC50 first, then in falling order down to the smallest. # answer = labels listed in requested order
Resp: b, a, d, c
